Entries and their measured IC50 follow.
- measured target: TS (Mus musculus, UniProt P07607)
- Construct: endogenous in cells
- Sequence (P07607 whole entry): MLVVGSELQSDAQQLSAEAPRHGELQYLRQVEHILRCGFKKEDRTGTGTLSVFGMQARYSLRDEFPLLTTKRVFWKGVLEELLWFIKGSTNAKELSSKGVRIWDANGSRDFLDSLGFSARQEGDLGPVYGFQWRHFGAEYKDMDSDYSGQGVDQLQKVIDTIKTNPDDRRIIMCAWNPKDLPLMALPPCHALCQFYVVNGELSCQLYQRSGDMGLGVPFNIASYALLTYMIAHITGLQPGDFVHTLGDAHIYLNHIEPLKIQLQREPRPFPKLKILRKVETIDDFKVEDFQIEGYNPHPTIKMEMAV
- experimental details: Inhibition of TS purified >2,000 fold from L1210 cells by affinity chromatography
- condition: second results table; TS purified >2,000 fold; read-out: TS I50
outcome measure: IC50

- C#CCN(Cc1ccc2nc(N)[nH]c(=O)c2c1)c1ccc(C(=O)N[C@@H](CC(=O)O)C(=O)O)cc1 [CB 3737]: 66 nM
- C#CCN(Cc1ccc2nc(N)nc(O)c2c1)c1ccc(C(=O)N[C@@H](CCC(=O)OCC)C(=O)OCC)cc1 [CB 3721]: > 3000 nM
- Nc1nc2ccc(CN(CCBr)c3ccc(C(=O)N[C@@H](CCC(=O)O)C(=O)O)cc3)cc2c(=O)[nH]1 [CB 3735]: 1100 nM
- C#CCN(Cc1ccc2nc(N)[nH]c(=O)c2c1)c1ccc(C(=O)N[C@@H](CCC(=O)O)C(=O)O)c(C)c1 [CB 3738]: 47 nM
- NC(=O)CN(Cc1ccc2nc(N)[nH]c(=O)c2c1)c1ccc(C(=O)N[C@@H](CCC(=O)O)C(=O)O)cc1 [CB 3734]: > 3000 nM
- N#CCN(Cc1ccc2nc(N)[nH]c(=O)c2c1)c1ccc(C(=O)N[C@@H](CCC(=O)O)C(=O)O)cc1 [CB 3726]: 94 nM
- Nc1nc2ccc(CN(CC(=O)O)c3ccc(C(=O)N[C@@H](CCC(=O)O)C(=O)O)cc3)cc2c(=O)[nH]1 [CB 3728]: 1400 nM
- Nc1nc(O)c2cc(CN(CC(=O)c3ccccc3)c3ccc(C(=O)N[C@@H](CCC(=O)O)C(=O)O)cc3)ccc2n1 [CB 3733]: 1640 nM
- Nc1nc(O)c2cc(CN(CCCO)c3ccc(C(=O)N[C@@H](CCC(=O)O)C(=O)O)cc3)ccc2n1 [CB 3729]: 120 nM
- Nc1nc(O)c2cc(CN(Cc3c[nH]c(=O)[nH]c3=O)c3ccc(C(=O)N[C@@H](CCC(=O)O)C(=O)O)cc3)ccc2n1 [CB 3743]: > 1000 nM
- Nc1nc2ccc(CN(CC3CO3)c3ccc(C(=O)N[C@@H](CCC(=O)O)C(=O)O)cc3)cc2c(=O)[nH]1 (stereo partly drawn) [CB 3736]: 310 nM
- Nc1nc(O)c2cc(CN(CCF)c3ccc(C(=O)N[C@@H](CCC(=O)O)C(=O)O)cc3)ccc2n1 [CB 3731]: 95 nM

* * *

- System: L1210 cells
- experimental details: Growth inhibition of L1210 cells in suspension culture, 48 h count
- Format: cell-based
- condition: Mus musculus, L1210, 48 h; second results table; read-out: ID50 L1210 (Tissue culture)
outcome measure: IC50 (µM)

* C#CCN(Cc1ccc2nc(N)nc(O)c2c1)c1ccc(C(=O)N[C@@H](CCC(=O)OCC)C(=O)OCC)cc1 [CB 3721] | 52
* Nc1nc(O)c2cc(CN(CC(=O)c3ccccc3)c3ccc(C(=O)N[C@@H](CCC(=O)O)C(=O)O)cc3)ccc2n1 [CB 3733] | 100
* C#CCN(Cc1ccc2nc(N)[nH]c(=O)c2c1)c1ccc(C(=O)N[C@@H](CCC(=O)OCC)C(=O)OCC)c(C)c1 [CB 3749] | 100
* NC(=O)CN(Cc1ccc2nc(N)[nH]c(=O)c2c1)c1ccc(C(=O)N[C@@H](CCC(=O)O)C(=O)O)cc1 [CB 3734] | 87
* N#CCN(Cc1ccc2nc(N)[nH]c(=O)c2c1)c1ccc(C(=O)N[C@@H](CCC(=O)O)C(=O)O)cc1 [CB 3726] | 5.4

* * *

Entries and their measured pIC50 follow.
- Tested on: L1210 cells
- experimental details: Growth inhibition of L1210 cells in suspension culture, 48 h count
- Assay type: cell-based
- condition: Mus musculus, L1210, 48 h; second results table; read-out: ID50 L1210 (Tissue culture)
pIC50: −log10 of the molar value.
outcome measure: pIC50

• CCOC(=O)CC[C@H](NC(=O)c1ccc(N(CCBr)Cc2ccc3nc(N)[nH]c(=O)c3c2)cc1)C(=O)OCC [CB 3746] = < 4.00
• CCOC(=O)CC[C@H](NC(=O)c1ccc(N(Cc2ccc3nc(N)[nH]c(=O)c3c2)CC(O)CBr)cc1)C(=O)OCC (some centres unmarked) [CB 3747] = < 4.00
• CCOC(=O)CC[C@H](NC(=O)c1ccc(N(CC(=O)OCC)Cc2ccc3nc(N)[nH]c(=O)c3c2)cc1)C(=O)OCC [CB 3745] = < 4.00
• C#CCN(Cc1ccc2nc(N)nc(O)c2c1)c1ccc(C(=O)N[C@@H](CCC(=O)O)C(=O)O)cc1 [CB 3717] = 5.07 to 5.19
• C#CCN(Cc1ccc2nc(N)[nH]c(=O)c2c1)c1ccc(C(=O)N[C@@H](CC(=O)O)C(=O)O)cc1 [CB 3737] = < 4.00
